All values here come from PubChem BioAssay.

Reported cell count values for a set of compounds
protocol.details: sensitizers of A549 cells to miR-34 induction, primary screen, imaging, A549 dox-inducible miR-34, nuclei and caspase counts (AID 1347080); further: test concentration not given here
assay.context: A549 miR-34 inducible, Hoechst nuclei count, 48 h; measured here: total cells without miR-34 induction

As a guide, the following entries are already answered.
- compound: "CC1OC(O[C@H]2C[C@@H](O)[C@]3(CO)[C@H]4[C@H](O)C[C@]5(C)[C@@H](C6=CC(=O)OC6)CC[C@]5(O)[C@@H]4CC[C@]3(O)C2)C(O)C(O)C1O (stereo not given in full)"
  cell count: 356
- compound: "c1ccc(CCCCN2CCC(c3ccccc3)CC2)cc1"
  cell count: 8890

IN: Bench note: what cell count did CCCCC(C#N)(Cn1cncn1)c1ccc(Cl)cc1 (stereo not given) show?
OUT: 9830

IN: Give the measured cell count of COCC1OC(=O)c2coc3c2[C@@]1(C)C1=C(C3=O)[C@@H]2CCC(=O)[C@@]2(C)CC1OC(C)=O (stereo not given in full) .
OUT: 4130

IN: Could you tell me which cell count is on file for "c1ccc(Cn2ccnc2)cc1" ?
OUT: 7170
